Biological target: human β3 adrenergic receptor (Homo sapiens, UniProt P13945)
Construct: expressed in transfected cells; host or cells: Chinese hamster ovary (CHO) cells, stably transfected
Sequence (P13945 whole entry): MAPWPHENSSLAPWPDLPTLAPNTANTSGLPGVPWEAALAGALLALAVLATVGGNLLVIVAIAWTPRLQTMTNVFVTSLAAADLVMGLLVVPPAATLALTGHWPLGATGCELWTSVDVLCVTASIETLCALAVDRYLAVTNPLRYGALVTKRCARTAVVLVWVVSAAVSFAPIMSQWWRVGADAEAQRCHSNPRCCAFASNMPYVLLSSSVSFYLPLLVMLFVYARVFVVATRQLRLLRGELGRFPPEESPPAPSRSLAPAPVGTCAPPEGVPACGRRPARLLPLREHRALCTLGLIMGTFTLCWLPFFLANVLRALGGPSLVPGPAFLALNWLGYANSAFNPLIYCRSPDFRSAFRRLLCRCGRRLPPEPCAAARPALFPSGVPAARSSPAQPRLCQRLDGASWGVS
Experiment: Functional assay: cAMP production (LANCE TR-FRET) in CHO cells stably transfected with cloned β3 adrenergic receptor
Type: cell-based
Settings: Table 4; human β3 functional activity; read-out: Human β Binding
pEC50: −log10 of the molar value.
test_readout: pEC50

Worked set:
1. O=C(Cn1c(=O)ncc2ccccc21)Nc1ccc(C[C@@H]2CC[C@H]([C@H](O)c3ccccc3)N2)cc1 [Example 17] : 8.00 to 9.00
2. O=C(Cn1ncc2ccccc21)Nc1ccc(C[C@@H]2CC[C@H]([C@H](O)c3ccccc3)N2)cc1 [Example 6] : 8.00 to 9.00
3. O=C(Cn1nccn1)Nc1ccc(C[C@@H]2CC[C@H]([C@H](O)c3ccccc3)N2)cc1 [Example 81] : 7.00 to 7.96
4. O=C(Cc1nnn[nH]1)Nc1ccc(C[C@@H]2CC[C@H]([C@H](O)c3ccccc3)N2)cc1 [Example 75] : 7.00 to 7.96
5. O=C(Nc1ccc(C[C@@H]2CC[C@H]([C@H](O)c3ccccc3)N2)cc1)c1ccccc1-c1nnn[nH]1 [Example 13] : 7.00 to 7.96
6. O=C(Cn1nnc2ccccc2c1=O)Nc1ccc(C[C@@H]2CC[C@H]([C@H](O)c3ccccc3)N2)cc1 [Example 59] : 8.00 to 9.00
7. O=C(Cn1ncc2ccccc2c1=O)Nc1ccc(C[C@@H]2CC[C@H]([C@H](O)c3ccccc3)N2)cc1 [Example 49] : 8.00 to 9.00
8. Cc1nc2c(CC(=O)Nc3ccc(C[C@@H]4CC[C@H]([C@H](O)c5ccccc5)N4)cc3)cccn2n1 [Example 97] : 5.52 to 6.00

Query: Item under review: O=C(Cc1n[nH]c(=O)[nH]1)Nc1ccc(C[C@@H]2CC[C@H]([C@H](O)c3ccccc3)N2)cc1 [Example 68] . Reported pEC50?
Result: 7.00 to 7.96

Query: Item under review: O=C(Cn1cnc2sccc2c1=O)Nc1ccc(C[C@@H]2CC[C@H]([C@H](O)c3ccccc3)N2)cc1 [Example 55] . Reported pEC50?
Result: 8.00 to 9.00

Query: Item under review: Cc1nc(C)c(CC(=O)Nc2ccc(C[C@@H]3CC[C@H]([C@H](O)c4ccccc4)N3)cc2)s1 [Example 10] . Reported pEC50?
Result: 8.00 to 9.00

Query: Item under review: Cc1ccc(OCC(=O)Nc2ccc(C[C@@H]3CC[C@H]([C@H](O)c4ccccc4)N3)cc2)nn1 [Example 95] . Reported pEC50?
Result: 7.00 to 7.96

Query: Item under review: O=C(Cc1ncccn1)Nc1ccc(C[C@@H]2CC[C@H]([C@H](O)c3ccccc3)N2)cc1 [Example 46] . Reported pEC50?
Result: 7.00 to 7.96

====

Target: human β3 adrenergic receptor (Homo sapiens, UniProt P13945)
Construct: expressed in transfected cells; host or cells: Chinese hamster ovary (CHO) cells, stably transfected
Test: Functional assay: cAMP production (LANCE TR-FRET) in CHO cells stably transfected with cloned β3 adrenergic receptor
Assay type: cell-based
Settings: Table 5; read-out: Human β3 Functional
# EC50 per record follows

1. CC(C(=O)Nc1ccc(C[C@@H]2CC[C@H]([C@H](O)c3ccccc3)N2)cc1)n1cccn1 (single isomer, unassigned) : 1 to 10 nM
2. Cc1nnc2n1CCCC2C(=O)Nc1ccc(C[C@@H]2CC[C@H]([C@H](O)c3ccccc3)N2)cc1 (single isomer, unassigned) [Example 150] : 1 to 10 nM
3. O=C(Nc1ccc(C[C@@H]2CC[C@H]([C@H](O)c3ccccc3)N2)cc1)C1CCc2ncnn21 (single isomer, unassigned) [Example 129] : 11 to 100 nM

Query: Item under review: CC(C(=O)Nc1ccc(C[C@@H]2CC[C@H]([C@H](O)c3ccccc3)N2)cc1)n1nncc1C(=O)O (single isomer, unassigned) [Example 196] . Reported EC50?
Result: 1 to 10 nM

====

Biological target: human β3 adrenergic receptor (Homo sapiens)
Construct: expressed in transfected cells; host or cells: Chinese hamster ovary (CHO) cells, stably transfected
Assay: Functional assay: cAMP production (LANCE TR-FRET) in CHO cells stably transfected with cloned β3 adrenergic receptor
Type: cell-based
Conditions: human β3 functional activity, shown as ranges; Table 13; read-out: Human β3 Functional
test_readout: EC50

1. O=C(Nc1ccc(C[C@@H]2CC[C@H]([C@H](O)c3cccc(Cl)c3)N2)cc1)[C@@H]1CCc2scnc21 : < 0.001 µM
2. CC(C(=O)Nc1ccc(CC2CCC(C(O)c3cccc(Cl)c3)N2)cc1)c1cscn1 (single isomer, unassigned) [Example 302] : 0.001 to 0.01 µM

Query: Item under review: O=C(Nc1ccc(CC2CCC(C(O)c3cccc(Cl)c3)N2)cc1)C1CCc2sc(Br)nc21 (single isomer, unassigned) [Example 298] . Reported EC50?
Result: < 0.001 µM

Query: Item under review: O=C(Nc1ccc(CC2CCC(C(O)c3cccc(Cl)c3)N2)cc1)C1CCc2sc(Br)nc21 (single isomer, unassigned) [Example 299] . Reported EC50?
Result: 0.011 to 0.1 µM

Query: Item under review: O=C(Nc1ccc(CC2CCC(C(O)c3cccc(Cl)c3)N2)cc1)C1CCc2sc(F)nc21 (single isomer, unassigned) [Example 301] . Reported EC50?
Result: 0.011 to 0.1 µM

Query: Item under review: O=C(Nc1ccc(C[C@@H]2CC[C@H]([C@H](O)c3cccc(Cl)c3)N2)cc1)[C@H]1CCc2scnc21 . Reported EC50?
Result: 0.011 to 0.1 µM

====

Target: human β3 adrenergic receptor (Homo sapiens)
Construct: expressed in transfected cells; host or cells: Chinese hamster ovary (CHO) cells, stably transfected
Assay: Functional assay: cAMP production (LANCE TR-FRET) in CHO cells stably transfected with cloned β3 adrenergic receptor
Type: cell-based
Conditions: Table 4; human β3 functional activity; read-out: Human β Binding
test_readout: EC50

Worked set:
1. O=C(Cn1ccc(=O)nc1)Nc1ccc(C[C@@H]2CC[C@H]([C@H](O)c3ccccc3)N2)cc1 [Example 66] : 0.101 to 1 µM
2. O=C(CN1CCCCC1=O)Nc1ccc(C[C@@H]2CC[C@H]([C@H](O)c3ccccc3)N2)cc1 [Example 89] : 0.001 to 0.01 µM
3. O=C(Cn1nc(Cl)ccc1=O)Nc1ccc(C[C@@H]2CC[C@H]([C@H](O)c3ccccc3)N2)cc1 [Example 51] : 0.001 to 0.01 µM

Query: Item under review: O=C(Nc1ccc(C[C@@H]2CC[C@H]([C@H](O)c3ccccc3)N2)cc1)C1CCCN1c1cccc(Br)c1 (some centres unmarked) [Example 38] . Reported EC50?
Result: 0.001 to 0.01 µM

Query: Item under review: Cc1nnc(CC(=O)Nc2ccc(C[C@@H]3CC[C@H]([C@H](O)c4ccccc4)N3)cc2)[nH]1 [Example 21] . Reported EC50?
Result: 0.011 to 0.1 µM

Query: Item under review: Cc1cccc2c(=O)n(CC(=O)Nc3ccc(C[C@@H]4CC[C@H]([C@H](O)c5ccccc5)N4)cc3)cnc12 [Example 58] . Reported EC50?
Result: 0.001 to 0.01 µM

====

# EC50 per record follows
Molecular target: human β3 adrenergic receptor (Homo sapiens)
Construct: expressed in transfected cells; host or cells: Chinese hamster ovary (CHO) cells, stably transfected
Test: Functional assay: cAMP production (LANCE TR-FRET) in CHO cells stably transfected with cloned β3 adrenergic receptor
Format: cell-based
Settings: human β3 functional activity, shown as ranges; Table 14; read-out: Human β3 Functional

Worked set:
1. Nc1nc2c(s1)CCC2C(=O)Nc1ccc(CC2CCC(C(O)c3cccc(Cl)c3)N2)cc1 (single isomer, unassigned) [Example 310] : < 1 nM
2. Nc1nc2c(s1)CCC2C(=O)Nc1ccc(CC2CCC(C(O)c3cccc(Cl)c3)N2)cc1 (single isomer, unassigned) [Example 311] : 1 to 10 nM

Could you now look at the following compound, please?
Query: Could you share what EC50 was measured for Nc1nc2c(s1)CCC2C(=O)Nc1ccc(CC2CCC(C(O)c3cccc(F)c3)N2)cc1 (single isomer, unassigned) [Example 306] , tested on human β3 adrenergic receptor (Homo sapiens)?
Result: < 1 nM

====

Target: human β3 adrenergic receptor (Homo sapiens)
Construct: expressed in transfected cells; host or cells: Chinese hamster ovary (CHO) cells, stably transfected
Assay: Functional assay: cAMP production (LANCE TR-FRET) in CHO cells stably transfected with cloned β3 adrenergic receptor
Type: cell-based
Conditions: Table 5; read-out: Human β3 Functional
Protocol: Chinese hamster ovary (CHO) cells, stably transfected with the cloned β-adrenergic receptor (β1, β2 or β3) are harvested after 3 days of subculturing. Harvesting of cells is done with Enzyme-free Dissociation Media (Specialty Media). Cells are then counted and resuspended in assay buffer (Hank's Balanced salt solution supplemented with 5 mM HEPES, 0.1% BSA) containing a phosphodiesterase inhibitor (IBMX, 0.6 mM). […]
test_readout: EC50

Worked set:
1. CCC(C(=O)Nc1ccc(C[C@@H]2CC[C@H]([C@H](O)c3ccccc3)N2)cc1)n1nccn1 (single isomer, unassigned) [Example 217] : 1 to 10 nM
2. O=C(Nc1ccc(C[C@@H]2CC[C@H]([C@H](O)c3ccccc3)N2)cc1)C1CCc2ccccc2C1 (single isomer, unassigned) [Example 109] : 1000 to 3000 nM
3. CC(C(=O)Nc1ccc(C[C@@H]2CC[C@H]([C@H](O)c3ccccc3)N2)cc1)c1nccs1 (single isomer, unassigned) [Example 201] : 1 to 10 nM
4. COc1ncncc1C(C)C(=O)Nc1ccc(C[C@@H]2CC[C@H]([C@H](O)c3ccccc3)N2)cc1 (single isomer, unassigned) [Example 213] : 11 to 100 nM
5. CC(C(=O)Nc1ccc(C[C@@H]2CC[C@H]([C@H](O)c3ccccc3)N2)cc1)n1cnnn1 (single isomer, unassigned) [Example 173] : 1 to 10 nM
6. O=C(Nc1ccc(CC2CCC(C(O)c3ccccc3)N2)cc1)C1Cc2ccccc2C1 (stereo not drawn) : 11 to 100 nM
7. O=C(Nc1ccc(C[C@@H]2CC[C@H]([C@H](O)c3ccccc3)N2)cc1)C1CCCc2ccccc21 (single isomer, unassigned) [Example 112] : 11 to 100 nM
8. CC(C(=O)Nc1ccc(C[C@@H]2CC[C@H]([C@H](O)c3ccccc3)N2)cc1)n1cncn1 (single isomer, unassigned) [Example 176] : 1 to 10 nM

Query: Item under review: CC(C(=O)Nc1ccc(C[C@@H]2CC[C@H]([C@H](O)c3ccccc3)N2)cc1)n1cnc2ccccc2c1=O (single isomer, unassigned) [Example 166] . Reported EC50?
Result: 1 to 10 nM

Query: Item under review: CC(C(=O)Nc1ccc(C[C@@H]2CC[C@H]([C@H](O)c3ccccc3)N2)cc1)c1nnc[nH]1 (single isomer, unassigned) . Reported EC50?
Result: 1 to 10 nM

Query: Item under review: COC(=O)c1cnnn1C(C)C(=O)Nc1ccc(C[C@@H]2CC[C@H]([C@H](O)c3ccccc3)N2)cc1 (single isomer, unassigned) [Example 195] . Reported EC50?
Result: 1 to 10 nM

Query: Item under review: COc1ncncc1C(C)C(=O)Nc1ccc(C[C@@H]2CC[C@H]([C@H](O)c3ccccc3)N2)cc1 (single isomer, unassigned) [Example 212] . Reported EC50?
Result: 11 to 100 nM
